Values were extracted from patent US20250026813A1.

- TARGET_OR_TEST_SYSTEM: T1, S2 subunit of the SARS-CoV-2 spike protein (Sino Biological 40590-V08B), His tag (SARS-CoV-2, UniProt P0DTC2 686-1213)
- T1 construct: domain: S2 subunit
OBSERVED_PROPERTY: HTRF deltaF (deltaF)
Could you give me the number in deltaF? Just the number is fine.

Example entries and their recorded answers appear below.
INSERT INTO assay_data (binder, unit_descriptor, readout_value) VALUES
  ('IMPI-042 (antibody, V domains shown) VH: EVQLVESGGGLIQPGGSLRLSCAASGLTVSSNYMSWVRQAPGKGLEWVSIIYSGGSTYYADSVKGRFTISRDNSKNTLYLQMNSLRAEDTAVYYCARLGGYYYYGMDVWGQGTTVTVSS VL: DIQMTQSPSSLSASVGERVTITCQASQDIRNYLNWYQKKPGKAPKLLIYDSSNLETGVPSRFSGGGSGTDFTFTISSLQPEDIATYYCQQYDNLPITFGQGTRLEIK', 'deltaF', 1.6),
  ('IMPI-059 (antibody, V domains shown) VH: EVQLVESGGGLIQPGGSLRLSCAASGFTVSSIYMSWVRQAPGKGLEWVSIIYSRGSTDYADSVKGRFTISRDISKNTLYLQMNSLRAEDTAVYYCARDGTMVRGVHAFDIWGQGTMVTVSS VL: DIQMTQSPPSLSASIGDRVTITCQASQDISNYLNWYQQKPGKAPKLLIYDASNLETGVPSRFSGSGSGTDFTLTISNLQPEDIVTYYCQQYDNLPSSFGQGTKLEIK', 'deltaF', -2.7),
  ('IMPI-032 (antibody, V domains shown) VH: QVQLQESGPGLVKPSGTLSLTCAVSGGSISSNKWWSWVRQPPGKGLEWIGEIDHSGSTMYNPSLKSRVTISVDKSKNQFSLKLNSVTAADTAVYYCTGEGYNWNYWGQGTRVTVSS VL: DVVMTQSPLSLPVTLGQTASISCRSSQSLLYTDGNTYLSWFQQRPGQSPRRLIYKVSKWESGVPDRFSGSGSGTDFTLKISRVEAEDVGIYYCMQGTHWPLTFGGGTKVEIK', 'deltaF', -8);

Fill blank: measured HTRF deltaF of the binder IMPI-033 (antibody, V domains shown) VH: QVQLQESGPGLVKPSQTLSLTCTVSGGSISSYGYYWSWIRQHPGKGLEWIGYIYYSGSTYYNPSLKSRVTMSVDTSKNQLSLRLNSVSAADTAVYYCARDFGGNSNYFDYWGQGTLVTVSS VL: AIQLTQSPSSLSASVGDRVTITCRASQGISSALAWYQQKPGKAPNLLIYDASSLESGVPSRFSGSGSGTDFTLTISSLQPEDFATYYCQQFNSSPLTFGGGTKVEIK is ____. -3.6

Entry IMPI-017 (antibody, V domains shown) VH: EVQLVESGGGLIQPGGSLRLSCAAAGLTVSSNYMNWVRQVPGKGLEWVSVIYSGGSTYYADSVKGRFTISRDNSKNTLYLQMNSLRAEDTAVYYCARDLGTLGMDVWGQGTTVTVSS VL: DIQLTQSPSFLSASVGDRVTITCWASQGISTYLAWYQQKPGKAPKLLIYAASTLQSGVPSRFSGSGSGTEFTLTISSLQPEDFATYYCQQLNSYLPTFGQGTKVEIK has what HTRF deltaF? 13

Recorded HTRF deltaF of IMPI-027 (antibody, V domains shown) VH: QVQLQESGPGLVKPSQTLSLTCTVSGGSISSYGYYWNWIRQHPGKGLEWIGYIYYSGSTYYNPSLKSRVTISVDTSKNQLSLRLNSVSAADTAVYYCARDFGGNSNYFDYWGQGTLVTVSS VL: AIQLTQSPSSLSASVGDRVTITCRTSQGISSALAWYQQKPGKAPKLLIYDASSLESGVPSRFSGSGSGTDFTLTISSLQPEDFATYYCQQFNSYPLTFGGGTKVEIK , please. 7.5
